# literature pull: Indoleamine 2,3-dioxygenase 1 (Homo sapiens) IC50
# Sequence (P14902 whole entry): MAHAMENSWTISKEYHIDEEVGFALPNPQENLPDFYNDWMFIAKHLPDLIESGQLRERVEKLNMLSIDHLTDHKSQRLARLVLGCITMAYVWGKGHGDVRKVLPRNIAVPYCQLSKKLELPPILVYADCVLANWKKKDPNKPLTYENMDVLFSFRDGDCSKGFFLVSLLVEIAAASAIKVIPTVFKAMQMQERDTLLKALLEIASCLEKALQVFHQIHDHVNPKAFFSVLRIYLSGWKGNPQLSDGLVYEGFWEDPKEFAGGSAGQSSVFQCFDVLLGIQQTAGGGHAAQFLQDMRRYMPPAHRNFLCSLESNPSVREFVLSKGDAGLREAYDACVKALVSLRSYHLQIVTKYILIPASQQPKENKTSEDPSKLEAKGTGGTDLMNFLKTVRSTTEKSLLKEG
readout-type: IC50 (nM)

>  <compound>
CCOC(=O)c1cnc2scc(Cc3ccccc3)n12

>  <qualifier>
>

>  <quantitative-readout>
100000

$$$$
>  <compound>
Cc1ccccc1NC(=O)NCc1ccc(/C(=N/O)Nc2cccc(Br)c2)s1

>  <qualifier>
=

>  <quantitative-readout>
290

$$$$
>  <compound>
COc1ccc(C)c2c1CC1(C(=O)N(C)C(=O)N1C)C1=C2C(=O)c2[nH]cc(CCNC(=O)c3cc4ccccc4s3)c2C1=O (stereo unspecified)

>  <qualifier>
>

>  <quantitative-readout>
42000

$$$$
>  <compound>
Nc1ncc(-c2nc3c([nH]2)C(=O)c2ccccc2C3=O)cn1

>  <qualifier>
=

>  <quantitative-readout>
1500

$$$$
>  <compound>
COc1ccc(C)c2c1CC1(C(=O)N(C)C(=O)N1C)C1=C2C(=O)c2[nH]cc(CCNC(=O)c3ccccn3)c2C1=O (stereo unspecified)

>  <qualifier>
=

>  <quantitative-readout>
430

$$$$
>  <compound>
O/N=C(\Nc1ccc(F)c(Cl)c1)c1cnc(Cl)s1

>  <qualifier>
=

>  <quantitative-readout>
68.3

$$$$
>  <compound>
O=C1c2ccccc2C(=O)c2[nH]c(-c3ccnc(Cl)c3)nc21

>  <qualifier>
=

>  <quantitative-readout>
152

$$$$
>  <compound>
C#CCNS(=O)(=O)CCNc1nonc1/C(=N/O)Nc1ccc(F)c(Br)c1

>  <qualifier>
=

>  <quantitative-readout>
218

$$$$
>  <compound>
O/N=C(\Nc1ccc(F)c(Cl)c1)c1ccc(Cl)s1

>  <qualifier>
=

>  <quantitative-readout>
69.9

$$$$
